Reference source: patent US20260217813A1

Target Or System: T1, IL-12 (Human IL12 (His Tag)), Sino Biological Cat. No. CT-050-H08H-20 (human, UniProt P29460 23-328; P29459 23-219)
T1 construct: Bought His-tagged p35/p40 heterodimer
T1 sequence (looked up) 1: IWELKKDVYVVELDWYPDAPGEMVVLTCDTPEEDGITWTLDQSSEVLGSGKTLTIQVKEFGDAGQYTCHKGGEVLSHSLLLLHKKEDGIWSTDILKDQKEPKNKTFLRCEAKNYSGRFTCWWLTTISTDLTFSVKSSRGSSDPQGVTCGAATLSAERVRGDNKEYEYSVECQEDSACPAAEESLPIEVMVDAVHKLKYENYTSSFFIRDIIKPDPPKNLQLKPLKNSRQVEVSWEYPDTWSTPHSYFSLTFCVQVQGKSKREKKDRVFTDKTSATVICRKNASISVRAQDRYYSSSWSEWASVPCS
T1 sequence (looked up) 2: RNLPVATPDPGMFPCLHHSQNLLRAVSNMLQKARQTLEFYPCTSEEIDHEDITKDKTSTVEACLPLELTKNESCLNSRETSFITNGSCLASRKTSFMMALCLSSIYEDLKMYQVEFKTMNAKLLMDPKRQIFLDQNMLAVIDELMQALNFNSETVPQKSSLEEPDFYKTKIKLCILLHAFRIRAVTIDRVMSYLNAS
Method Summary: FACS competition, IL-12-His 20 nM on 293T-IL-12RB1&IL-23R cells, antibody 10 µg/mL
Procedure: 200 μL of 1% PBSA was added into each sample, and the mixture was centrifuged at 700×g for 5 min to discard the supernatant. According to experiment design, correspondingly diluted antibody (highest final concentration of 30 μg/mL, 3-fold dilution, 8 concentrations in total) and human IL-12 (Sino Biological, Cat. No.: CT-050-H08H-20) (final concentration of 20 nM) were mixed at a ratio of 1:1, and a blank control was set. […]
Give measured MFI for each item. Keep answers brief.
One number for each entry.

Worked set:
Binder: H5L12 (antibody, human IgG1, kappa, V domains shown, IgG1/kappa) VH: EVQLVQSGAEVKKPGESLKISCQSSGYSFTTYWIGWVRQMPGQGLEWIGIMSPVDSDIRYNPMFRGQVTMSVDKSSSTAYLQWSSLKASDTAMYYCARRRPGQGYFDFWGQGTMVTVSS VL: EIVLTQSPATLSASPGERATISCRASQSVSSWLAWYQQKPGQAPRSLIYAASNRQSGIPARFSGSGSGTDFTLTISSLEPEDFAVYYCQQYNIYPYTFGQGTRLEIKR
MFI: 32.4
--
Binder: H5L9 (antibody, human IgG1, kappa, V domains shown, Humanized anti-human IL-12/IL-23 p40 antibody; IgG1 (P01857) / kappa (P01834) constant regions) VH: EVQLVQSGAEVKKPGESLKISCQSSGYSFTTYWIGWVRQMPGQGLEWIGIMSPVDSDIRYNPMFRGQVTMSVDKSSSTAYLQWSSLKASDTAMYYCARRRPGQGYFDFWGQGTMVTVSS VL: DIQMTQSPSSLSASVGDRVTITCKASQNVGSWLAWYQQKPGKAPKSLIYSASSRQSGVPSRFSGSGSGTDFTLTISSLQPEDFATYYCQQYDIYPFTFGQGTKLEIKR
MFI: 134
--
Binder: ustekinumab (trade name Stelara) (antibody, V domains shown) VH: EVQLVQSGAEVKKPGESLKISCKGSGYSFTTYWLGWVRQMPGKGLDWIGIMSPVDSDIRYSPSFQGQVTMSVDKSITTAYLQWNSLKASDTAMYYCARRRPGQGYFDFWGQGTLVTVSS VL: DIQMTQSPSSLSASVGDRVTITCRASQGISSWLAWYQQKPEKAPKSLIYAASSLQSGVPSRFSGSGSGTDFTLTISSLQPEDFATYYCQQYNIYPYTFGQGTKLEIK
MFI: 31

Hi there! I need MFI for each item below, if you can.
1. H5L11 (antibody, human IgG1, kappa, V domains shown, IgG1/kappa) VH: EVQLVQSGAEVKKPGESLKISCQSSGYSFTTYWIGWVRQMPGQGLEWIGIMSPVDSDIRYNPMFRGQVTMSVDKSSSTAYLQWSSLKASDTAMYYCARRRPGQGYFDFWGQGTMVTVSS VL: EIVLTQSPATLSASPGERATISCRASQSVSSWLAWYQQKPGQAPRSLIYSASNLQSGIPARFSGSGSGTDFTLTISSLEPEDFAVYYCQQYNIYPYTFGQGTRLEIKR
2. H5L14 (antibody, human IgG1, kappa, V domains shown, IgG1/kappa) VH: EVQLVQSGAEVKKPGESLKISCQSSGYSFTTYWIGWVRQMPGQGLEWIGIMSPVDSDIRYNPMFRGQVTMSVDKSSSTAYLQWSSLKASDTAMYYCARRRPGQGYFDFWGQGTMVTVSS VL: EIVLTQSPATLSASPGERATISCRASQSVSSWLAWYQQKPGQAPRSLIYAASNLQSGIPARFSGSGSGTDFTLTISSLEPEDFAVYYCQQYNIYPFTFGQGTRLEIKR
3. H5L10 (antibody, human IgG1, kappa, V domains shown, IgG1/kappa) VH: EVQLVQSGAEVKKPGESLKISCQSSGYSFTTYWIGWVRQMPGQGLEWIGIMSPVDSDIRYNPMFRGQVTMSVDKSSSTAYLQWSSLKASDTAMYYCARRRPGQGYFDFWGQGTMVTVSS VL: EIVLTQSPATLSASPGERATISCRASQSVGSWLAWYQQKPGQAPRSLIYAASNLQSGIPARFSGSGSGTDFTLTISSLEPEDFAVYYCQQYNIYPYTFGQGTRLEIKR

Result:
1: 33.9; 2: 46.3; 3: 34.1
